- measured_target: Recombinant human inducible nitric oxide synthase (hiNOS) (Homo sapiens, UniProt P35228)
- assay_remarks: Citrulline Assay for Nitric Oxide Synthase (hiNOS)
- assay_conditions: conversion of [3H]-arginine to [3H]-citrulline, 30 µM L-arginine, 37°C, 15 minutes
pIC50: −log10 of the molar value.
experimental_endpoint: pIC50

compound	result_value
CC(=N)NCCCC(C)(N)C(=O)O (stereo not drawn) [Example 1]	4.13
CC(=N)NCC[Se]CC(N)C(=O)O (racemic) [Example 3, Nε-iminoethyl-aminoethylselenocysteine]	4.45
CC(=N)NCCCCC(C)(N)C(=O)O (racemic) [Example 2]	4.58
